Reference source: patent US20210317231A1

- SYSTEM: T1, cynomolgus monkey 5T4 antigen (cynomolgus monkey, UniProt Q4R8Y9 35-420)
- T1 construct: whole, on cells; also called cyno 5T4
- T1 sequence (looked up): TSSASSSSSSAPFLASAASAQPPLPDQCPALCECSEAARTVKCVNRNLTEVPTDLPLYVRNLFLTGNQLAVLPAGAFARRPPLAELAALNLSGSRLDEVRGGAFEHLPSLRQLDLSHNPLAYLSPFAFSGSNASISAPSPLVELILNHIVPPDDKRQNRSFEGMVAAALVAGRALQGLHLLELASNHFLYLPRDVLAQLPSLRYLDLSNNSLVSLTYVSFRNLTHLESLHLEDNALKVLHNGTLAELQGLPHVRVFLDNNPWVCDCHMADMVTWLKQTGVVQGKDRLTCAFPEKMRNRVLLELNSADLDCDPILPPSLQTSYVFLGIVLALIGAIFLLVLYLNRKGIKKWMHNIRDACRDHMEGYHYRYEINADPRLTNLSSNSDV
- PROCEDURE_SUMMARY: flow cytometry, CHOZN cells expressing cyno 5T4
MEASURED_ENDPOINT: EC50 (µg/mL)
One number for each entry, in µg/mL.

chimeric anti-5T4 monoclonal antibody 843 (antibody, human IgG1, V domains shown) VH: QSLEESGGRLVTPGTPLTLTCTASGFSLNNAYMNWVRQAPGKGLEWIGIINTYGSTYFATWAKGRFTFSKTSTTVDLKITSPTTEDTATYFCARAYAPFSTYSHYYGMDLWGPGTLVTVSS VL: DVVMTQTPSSVSAAVGGTVTIKCQASESIGSWLSWYQQKPGQPPKLLIYEASKLTSGVPSRFKGSGSGTEYTLTISDLESADAATYYCQYTDYGSNYLGTFGGGTEVVVK = 0.21

Now consider a different binder.
Data point: chimeric anti-5T4 monoclonal antibody 834 (antibody, human IgG1, V domains shown) VH: QSVEESGGRLVTPGTPLTLTCTVSGFSLSTYSMSWVRQAPGKGLEWIGVISRGGSAYYASWAKGRFTISKTSTTVDLKVTSPTTEDTATYFCARGAISSGYYVYDGMDLWGPGTLVTVSS VL: DIVMTQTPGSVEAAVGGTVTIKCQASESISSYLAWYQQKPGQPPKFLIYSASTLASGVPSRFKGSGSGTEFTLTISDLESADAATYYCQCTDYGSDYMGAFGGGTGVVVK ; EC50 = 0.13
